Taken from paper PMC4410974.

- measurement-notes: Sirolimus whole blood pharmacokinetics
- Assay type: in vivo, human
- condition-context: human, whole blood, oral, 3 mg, T1/2, sirolimus 3 mg, with ketoconazole, n=6

| structure-as-smiles | half-life / h |
| --- | --- |
| CO[C@H]1C[C@@H]2CC[C@@H](C)[C@@](O)(O2)C(=O)C(=O)N2CCCC[C@H]2C(=O)O[C@H]([C@H](C)C[C@@H]2CC[C@@H](O)[C@H](OC)C2)CC(=O)[C@H](C)/C=C(\C)[C@@H](O)[C@@H](OC)C(=O)[C@H](C)C[C@H](C)/C=C/C=C/C=C/1C | 84 |

###

- measurement-notes: Sirolimus whole blood pharmacokinetics
- Type: in vivo, human
- condition-context: human, whole blood, oral, 8 mg, T1/2, sirolimus 8 mg, without ketoconazole, n=1
measured-endpoint: half-life (h)

| compound | unit-symbol | value-measured |
| --- | --- | --- |
| CO[C@H]1C[C@@H]2CC[C@@H](C)[C@@](O)(O2)C(=O)C(=O)N2CCCC[C@H]2C(=O)O[C@H]([C@H](C)C[C@@H]2CC[C@@H](O)[C@H](OC)C2)CC(=O)[C@H](C)/C=C(\C)[C@@H](O)[C@@H](OC)C(=O)[C@H](C)C[C@H](C)/C=C/C=C/C=C/1C [Sirolimus] | h | 18 |

###

- measurement-notes: Sirolimus whole blood pharmacokinetics
- Assay type: in vivo, human
- condition-context: human, whole blood, oral, 4 mg, Cmax, sirolimus 4 mg, with ketoconazole, n=6
measured-endpoint: Cmax (ng/mL)

| structure-as-smiles | measured-endpoint | value-measured |
| --- | --- | --- |
| CO[C@H]1C[C@@H]2CC[C@@H](C)[C@@](O)(O2)C(=O)C(=O)N2CCCC[C@H]2C(=O)O[C@H]([C@H](C)C[C@@H]2CC[C@@H](O)[C@H](OC)C2)CC(=O)[C@H](C)/C=C(\C)[C@@H](O)[C@@H](OC)C(=O)[C@H](C)C[C@H](C)/C=C/C=C/C=C/1C | Cmax | 66.8 |

###

- measurement-notes: Sirolimus whole blood pharmacokinetics
- Format: in vivo, human
- condition-context: human, whole blood, oral, 30 mg, Tmax [SD], sirolimus alone study, 4 hours apart (total 60 mg), N=5, mean

| structure-as-smiles | Tmax |
| --- | --- |
| CO[C@H]1C[C@@H]2CC[C@@H](C)[C@@](O)(O2)C(=O)C(=O)N2CCCC[C@H]2C(=O)O[C@H]([C@H](C)C[C@@H]2CC[C@@H](O)[C@H](OC)C2)CC(=O)[C@H](C)/C=C(\C)[C@@H](O)[C@@H](OC)C(=O)[C@H](C)C[C@H](C)/C=C/C=C/C=C/1C | 2.2 h |

###

- measurement-notes: Sirolimus whole blood pharmacokinetics
- Format: in vivo, human
- condition-context: human, whole blood, oral, 45 mg, AUC [SD], sirolimus alone study, 24 hours apart (total 90 mg), N=2, mean
measured-endpoint: AUC (ng·h/mL)

| structure-as-smiles | measured-endpoint | value-measured |
| --- | --- | --- |
| CO[C@H]1C[C@@H]2CC[C@@H](C)[C@@](O)(O2)C(=O)C(=O)N2CCCC[C@H]2C(=O)O[C@H]([C@H](C)C[C@@H]2CC[C@@H](O)[C@H](OC)C2)CC(=O)[C@H](C)/C=C(\C)[C@@H](O)[C@@H](OC)C(=O)[C@H](C)C[C@H](C)/C=C/C=C/C=C/1C | AUC | 3360 |

###

- measurement-notes: Sirolimus whole blood pharmacokinetics
- Assay type: in vivo, human
- condition-context: human, whole blood, oral, 30 mg, Cmax [SD], sirolimus alone study, 24 hours apart (total 60 mg), N=3, mean
measured-endpoint: Cmax

| structure-as-smiles | value-measured |
| --- | --- |
| CO[C@H]1C[C@@H]2CC[C@@H](C)[C@@](O)(O2)C(=O)C(=O)N2CCCC[C@H]2C(=O)O[C@H]([C@H](C)C[C@@H]2CC[C@@H](O)[C@H](OC)C2)CC(=O)[C@H](C)/C=C(\C)[C@@H](O)[C@@H](OC)C(=O)[C@H](C)C[C@H](C)/C=C/C=C/C=C/1C | 83.9 ng/mL |

###

- measurement-notes: Sirolimus whole blood pharmacokinetics
- Format: in vivo, human
- condition-context: human, whole blood, oral, 1 mg, AUC∞, sirolimus 1 mg, without ketoconazole, n=6

| structure-as-smiles | AUC(0-inf) / ng·h/mL |
| --- | --- |
| CO[C@H]1C[C@@H]2CC[C@@H](C)[C@@](O)(O2)C(=O)C(=O)N2CCCC[C@H]2C(=O)O[C@H]([C@H](C)C[C@@H]2CC[C@@H](O)[C@H](OC)C2)CC(=O)[C@H](C)/C=C(\C)[C@@H](O)[C@@H](OC)C(=O)[C@H](C)C[C@H](C)/C=C/C=C/C=C/1C | 186 |

###

- measurement-notes: Sirolimus whole blood pharmacokinetics
- Type: in vivo, human
- condition-context: human, whole blood, oral, 16 mg, Cmax, sirolimus 16 mg, with ketoconazole, n=2

| structure-as-smiles | Cmax [ng/mL] |
| --- | --- |
| CO[C@H]1C[C@@H]2CC[C@@H](C)[C@@](O)(O2)C(=O)C(=O)N2CCCC[C@H]2C(=O)O[C@H]([C@H](C)C[C@@H]2CC[C@@H](O)[C@H](OC)C2)CC(=O)[C@H](C)/C=C(\C)[C@@H](O)[C@@H](OC)C(=O)[C@H](C)C[C@H](C)/C=C/C=C/C=C/1C | 123 |

###

- measurement-notes: Sirolimus whole blood pharmacokinetics
- Assay type: in vivo, human
- condition-context: human, whole blood, oral, 8 mg, Cmax, sirolimus 8 mg, without ketoconazole, n=1

| structure-as-smiles | Cmax, ng/mL |
| --- | --- |
| CO[C@H]1C[C@@H]2CC[C@@H](C)[C@@](O)(O2)C(=O)C(=O)N2CCCC[C@H]2C(=O)O[C@H]([C@H](C)C[C@@H]2CC[C@@H](O)[C@H](OC)C2)CC(=O)[C@H](C)/C=C(\C)[C@@H](O)[C@@H](OC)C(=O)[C@H](C)C[C@H](C)/C=C/C=C/C=C/1C | 25.2 |

###

- measurement-notes: Sirolimus whole blood pharmacokinetics
- Type: in vivo, human
- condition-context: human, whole blood, oral, 2 mg, AUC∞, sirolimus 2 mg, with ketoconazole, n=6

| compound | AUC(0-inf) (ng·h/mL) |
| --- | --- |
| CO[C@H]1C[C@@H]2CC[C@@H](C)[C@@](O)(O2)C(=O)C(=O)N2CCCC[C@H]2C(=O)O[C@H]([C@H](C)C[C@@H]2CC[C@@H](O)[C@H](OC)C2)CC(=O)[C@H](C)/C=C(\C)[C@@H](O)[C@@H](OC)C(=O)[C@H](C)C[C@H](C)/C=C/C=C/C=C/1C [Sirolimus] | 1350 |

###

- measurement-notes: Sirolimus whole blood pharmacokinetics
- Format: in vivo, human
- condition-context: human, whole blood, oral, 3 mg, AUC∞, sirolimus 3 mg, with ketoconazole, n=6
measured-endpoint: AUC(0-inf) (ng·h/mL)

| molecule | unit-symbol | value-measured |
| --- | --- | --- |
| CO[C@H]1C[C@@H]2CC[C@@H](C)[C@@](O)(O2)C(=O)C(=O)N2CCCC[C@H]2C(=O)O[C@H]([C@H](C)C[C@@H]2CC[C@@H](O)[C@H](OC)C2)CC(=O)[C@H](C)/C=C(\C)[C@@H](O)[C@@H](OC)C(=O)[C@H](C)C[C@H](C)/C=C/C=C/C=C/1C [Sirolimus] | ng·h/mL | 2450 |

###

- measurement-notes: Sirolimus whole blood pharmacokinetics
- Type: in vivo, human
- condition-context: human, whole blood, oral, 8 mg, Cmax, sirolimus 8 mg, with ketoconazole, n=1

| structure-as-smiles | Cmax, ng/mL |
| --- | --- |
| CO[C@H]1C[C@@H]2CC[C@@H](C)[C@@](O)(O2)C(=O)C(=O)N2CCCC[C@H]2C(=O)O[C@H]([C@H](C)C[C@@H]2CC[C@@H](O)[C@H](OC)C2)CC(=O)[C@H](C)/C=C(\C)[C@@H](O)[C@@H](OC)C(=O)[C@H](C)C[C@H](C)/C=C/C=C/C=C/1C | 85.2 |

###

- measurement-notes: Sirolimus whole blood pharmacokinetics
- Assay type: in vivo, human
- condition-context: human, whole blood, oral, 6 mg, AUC∞, sirolimus 6 mg, without ketoconazole, n=3

| structure-as-smiles | unit-symbol | AUC(0-inf) |
| --- | --- | --- |
| CO[C@H]1C[C@@H]2CC[C@@H](C)[C@@](O)(O2)C(=O)C(=O)N2CCCC[C@H]2C(=O)O[C@H]([C@H](C)C[C@@H]2CC[C@@H](O)[C@H](OC)C2)CC(=O)[C@H](C)/C=C(\C)[C@@H](O)[C@@H](OC)C(=O)[C@H](C)C[C@H](C)/C=C/C=C/C=C/1C | ng·h/mL | 510 |
